- Tested on: HMLE_sh_eGFP viability, CellTiter-Glo luminescence, 72 h
- Method summary: cytotoxicity in HMLE control line with eGFP shRNA, dose response, counter-screen for HMLE_sh_ECad selective toxicity project, cell-based, HMLE_sh_eGFP, luminescence (AID 463074);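 further: counterscreen control line to flag general toxicity for the HMLE_sh_ECad screen; potency for loss of viability as luminescence drops below DMSO wells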
Activity calls are given as the source filed them.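 How the source made its calls: active means AC50 no more than tenfold above the top dose tested, or full inhibition at every dose with a flat fit (cut at about 19 µM in these data); inconclusive means flat curve fit with inhibition between 30% and 70%, or poor fit; inactive means AC50 more than tenfold above the top dose tested.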
Classes used: label 1 (active), label 0 (inactive)

>  <Compound>
O=[N+]([O-])c1ccc(CP(=O)(c2ccccc2)c2ccccc2)cc1

>  <Assayed target>
HMLE_sh_eGFP viability, CellTiter-Glo luminescence, 72 h

>  <Category>
label 0

$$$$
>  <Compound>
COc1ccc(-c2cc(-c3nc4ccccn4c3NCc3ccccc3)ccc2OC)cc1

>  <Assayed target>
HMLE_sh_eGFP viability, CellTiter-Glo luminescence, 72 h

>  <Category>
label 1

$$$$
>  <Compound>
O=C(Nc1cccc(-c2csc(Nc3cccc(C(F)(F)F)c3)n2)c1)c1ccccc1

>  <Assayed target>
HMLE_sh_eGFP viability, CellTiter-Glo luminescence, 72 h

>  <Category>
label 1

$$$$
>  <Compound>
COC(=O)c1sc2nc(N3CCCCC3)c3c(c2c1N)CCCC3

>  <Assayed target>
HMLE_sh_eGFP viability, CellTiter-Glo luminescence, 72 h

>  <Category>
label 1

$$$$
>  <Compound>
CC(/C=N/NC(=O)c1cc(-c2ccc(C)s2)[nH]n1)=C\c1ccccc1

>  <Assayed target>
HMLE_sh_eGFP viability, CellTiter-Glo luminescence, 72 h

>  <Category>
label 1

$$$$
>  <Compound>
O=C(Nc1cccc(Cl)c1N1CCCC1)c1cccc(-c2cc3ccccc3oc2=O)c1

>  <Assayed target>
HMLE_sh_eGFP viability, CellTiter-Glo luminescence, 72 h

>  <Category>
label 1

$$$$
>  <Compound>
O=C(Nc1ccc(Nc2ccccc2)cc1)c1ccccc1

>  <Assayed target>
HMLE_sh_eGFP viability, CellTiter-Glo luminescence, 72 h

>  <Category>
label 1

$$$$
>  <Compound>
O=C(/C=C/Sc1ccccc1)c1ccc(Cl)cc1

>  <Assayed target>
HMLE_sh_eGFP viability, CellTiter-Glo luminescence, 72 h

>  <Category>
label 1

$$$$
>  <Compound>
Cc1ccc(C(C#N)c2ccc3c(C(F)(F)F)cc(C(F)(F)F)nc3n2)cc1 (stereo unspecified)

>  <Assayed target>
HMLE_sh_eGFP viability, CellTiter-Glo luminescence, 72 h

>  <Category>
label 1

$$$$
>  <Compound>
Cc1ccc(C(=O)CSc2nc(-c3ccccc3)ccc2C#N)cc1

>  <Assayed target>
HMLE_sh_eGFP viability, CellTiter-Glo luminescence, 72 h

>  <Category>
label 1

$$$$
>  <Compound>
Cc1ccc(NC(=O)CN(C)C(=O)Cn2ncc(Cl)c(Cl)c2=O)cc1

>  <Assayed target>
HMLE_sh_eGFP viability, CellTiter-Glo luminescence, 72 h

>  <Category>
label 1

$$$$
>  <Compound>
COc1ccc(CN(CCC(c2ccccc2)c2ccc(OC(C)C)cc2)C(=O)CCl)cc1OC (stereo unspecified)

>  <Assayed target>
HMLE_sh_eGFP viability, CellTiter-Glo luminescence, 72 h

>  <Category>
label 1

$$$$
>  <Compound>
Nc1c(C(O)(C(F)(F)F)C(F)(F)F)cc(C(O)(C(F)(F)F)C(F)(F)F)c2ccccc12

>  <Assayed target>
HMLE_sh_eGFP viability, CellTiter-Glo luminescence, 72 h

>  <Category>
label 1

$$$$
>  <Compound>
COc1cc(Br)cc(/C=C/c2ccc3cccc(O)c3n2)c1O

>  <Assayed target>
HMLE_sh_eGFP viability, CellTiter-Glo luminescence, 72 h

>  <Category>
label 1

$$$$
>  <Compound>
Cc1ccc(NC(=O)c2nc(S(=O)(=O)Cc3ccccc3C)ncc2Cl)cc1C

>  <Assayed target>
HMLE_sh_eGFP viability, CellTiter-Glo luminescence, 72 h

>  <Category>
label 1

$$$$
>  <Compound>
COc1cc(NC(=O)c2csc(N)n2)cc(C(=O)Nc2cccc(C(F)(F)F)c2)c1

>  <Assayed target>
HMLE_sh_eGFP viability, CellTiter-Glo luminescence, 72 h

>  <Category>
label 1

$$$$
>  <Compound>
Cc1ccc2nc(N(CCCN(C)C)C(=O)c3cc(-c4cccs4)nc4ccccc34)sc2c1

>  <Assayed target>
HMLE_sh_eGFP viability, CellTiter-Glo luminescence, 72 h

>  <Category>
label 1

$$$$
>  <Compound>
CCc1cc(-c2n[nH]c(C)c2Oc2ccc(C(C)C)cc2)c(O)cc1O

>  <Assayed target>
HMLE_sh_eGFP viability, CellTiter-Glo luminescence, 72 h

>  <Category>
label 1

$$$$
>  <Compound>
CCN(CC)CCCNC(=O)c1cc(-c2ccccc2)c(N2CCCCC2)s1

>  <Assayed target>
HMLE_sh_eGFP viability, CellTiter-Glo luminescence, 72 h

>  <Category>
label 1

$$$$
>  <Compound>
CC[C@@]1(O)C(=O)OCc2c1cc1n(c2=O)Cc2cc3c(NC(=O)CN)cccc3nc2-1

>  <Assayed target>
HMLE_sh_eGFP viability, CellTiter-Glo luminescence, 72 h

>  <Category>
label 1

$$$$
>  <Compound>
COc1cccc(/C=C/c2ccc3ccccc3n2)c1OC(C)=O

>  <Assayed target>
HMLE_sh_eGFP viability, CellTiter-Glo luminescence, 72 h

>  <Category>
label 1

$$$$
